biological target: NPY Y5 receptor (Homo sapiens, UniProt Q15761); experiment: Radioligand (125I-PYY) binding to membrane suspensions, cloned human NPY Y5 receptor; parameters: expressed in transfected cells; host or cells: LM(tk-) cells (typically); details: 125I-PYY competition, membranes of transfected LM(tk-) cells; read-out: Ki, binding affinity of selected compounds
Sequence (Q15761 whole entry): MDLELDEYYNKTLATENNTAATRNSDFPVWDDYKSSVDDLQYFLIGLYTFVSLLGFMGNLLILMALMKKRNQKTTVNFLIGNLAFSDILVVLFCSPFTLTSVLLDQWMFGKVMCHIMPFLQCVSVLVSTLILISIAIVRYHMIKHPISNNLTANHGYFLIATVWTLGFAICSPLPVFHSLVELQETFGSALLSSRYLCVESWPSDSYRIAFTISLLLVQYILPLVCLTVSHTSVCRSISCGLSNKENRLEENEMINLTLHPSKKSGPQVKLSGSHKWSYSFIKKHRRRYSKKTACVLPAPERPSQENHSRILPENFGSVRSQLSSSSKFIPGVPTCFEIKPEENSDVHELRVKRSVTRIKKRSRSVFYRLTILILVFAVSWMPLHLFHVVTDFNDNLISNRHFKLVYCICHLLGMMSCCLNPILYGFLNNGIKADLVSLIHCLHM
REPORTED PROPERTY: Ki (nM)
Number only, in nM; omit the unit.

SMILES CODE | Ki, nM
CN1CCN([C@H]2CC[C@@H](C(=O)Nc3ccc(-c4cc(F)cc(F)c4)cn3)CC2)C1=O | 3.8

# next compound below
Tell me its Ki given O=C1COCCN1[C@H]1CC[C@@H](C(=O)Nc2ccc(-c3cc(F)cc(F)c3)cn2)CC1 as the entry.
8
